- Test system: Klebsiella aerogenes DSM 30053
- protocol-text: fold change of Histamine concentration vs plate DMSO controls (fold change (ratio)); higher = more amine produced, active = hit call of the paper (significant change in both replicates, either direction)
- recorded-conditions: 20 µM; incubation time: 27 h, anaerobic, 37 °C
Structures can show the parent of a compound that is named as a salt.
assay-metric: fold change of Histamine concentration
The answer should be a number; do not append a unit.

ClC1C(Cl)C(Cl)C(Cl)C(Cl)C1Cl (stereo unspecified) = 0.984
OC(c1ccccc1)(c1ccccc1)C1CCNCC1 = 1.06
CN1[C@@H]2CC[C@H]1C[C@@H](OC1c3ccccc3CCc3ccccc31)C2 [Deptropine citrate] = 1.06
CC1(C)[C@H](C(=O)O[C@H](C#N)c2cccc(Oc3ccccc3)c2)[C@@H]1C=C(Br)Br = 1.02
O=C1C2CC=CCC2C(=O)N1SC(Cl)(Cl)Cl (stereo unspecified) = 1.02

Next item in the queue.
Q: Query the reported fold change of Histamine concentration for Klebsiella aerogenes DSM 30053; item: `CC(=NC#N)N(C)Cc1ccc(Cl)nc1`
Result: 1.02

---

Reported values of growth for individual entries
- Test system: Clostridium sporogenes DSM 1664
- protocol-text: growth (OD595) fold change vs plate DMSO controls (fold change (ratio)); higher = more growth
- recorded-conditions: 20 µM; incubation time: 27 h, anaerobic, 37 °C

Q: Find the recorded growth belonging to `CCCN(CCC)C(=O)SCc1ccccc1` and report it.
Result: 1.02

---

Reported values of fold change of 2-Phenylethylamine concentration for individual entries
- Tested on: Ruminococcus gnavus DSM 108212
- protocol-text: fold change of 2-Phenylethylamine concentration vs plate DMSO controls (fold change (ratio)); higher = more amine produced, active = hit call of the paper (significant change in both replicates, either direction)
- recorded-conditions: 20 µM; incubation time: 27 h, anaerobic, 37 °C
Structures can show the parent of a compound that is named as a salt.
The answer should be a number; do not append a unit.

// worked examples, fold change of 2-Phenylethylamine concentration included
O=c1c2ccccc2[se]n1-c1ccccc1 = 0.851
COCc1cnc(C2=NC(C)(C(C)C)C(=O)N2)c(C(=O)O)c1 (configuration not stated) = 1.43
O=C1CC[C@@]2(O)[C@H]3Cc4ccc(O)c5c4[C@@]2(CCN3CC2CC2)[C@H]1O5 [Naltrexone hydrochloride dihydrate] = 0.896
CC1(C)C(C=C(Cl)Cl)C1C(=O)OC(C#N)c1ccc(F)c(Oc2ccccc2)c1 (mixture of isomers) = 1.02
C#CCOc1ccc(CCNC(=O)C(OCC#C)c2ccc(Cl)cc2)cc1OC (configuration not stated) = 0.964
CCC1(C2=NCCN2)Cc2ccccc2O1 (configuration not stated) [Efaroxan hydrochloride] = 1.01
C[C@@H]1[C@@H](c2ccc(Cl)cc2)SC(=O)N1C(=O)NC1CCCCC1 = 0.882
CN1[C@@H]2C[C@@H](OC(=O)[C@H](CO)c3ccccc3)C[C@H]1[C@@H]1O[C@@H]12 [Scopolamine hydrochloride] = 1.12

Q: Find the recorded fold change of 2-Phenylethylamine concentration belonging to `CNC(=O)c1cc(Cl)cc(C)c1NC(=O)c1cc(Br)nn1-c1ncccc1Cl` and report it.
Result: 1.01

Q: Find the recorded fold change of 2-Phenylethylamine concentration belonging to CCCC(C)C1(CC)C(=O)NC(=O)NC1=O (configuration not stated) and report it.
Result: 1.04

Q: Find the recorded fold change of 2-Phenylethylamine concentration belonging to CC(NC(C)(C)C)C(=O)c1cccc(Cl)c1 (configuration not stated) [Bupropion hydrochloride] and report it.
Result: 1.12

Q: Find the recorded fold change of 2-Phenylethylamine concentration belonging to `CCNC(=O)NC(=O)/C(C#N)=N/OC` and report it.
Result: 1.02

Q: Find the recorded fold change of 2-Phenylethylamine concentration belonging to CC(=O)OCC(=O)[C@H]1CC[C@H]2[C@@H]3CC[C@H]4C[C@H](O)CC[C@]4(C)[C@H]3C(=O)C[C@]12C [Alfadolone acetate] and report it.
Result: 1.01

Q: Find the recorded fold change of 2-Phenylethylamine concentration belonging to CCC(=O)O[C@@](Cc1ccccc1)(c1ccccc1)[C@@H](C)CN(C)C [Levopropoxyphene napsylate] and report it.
Result: 1.03

Q: Find the recorded fold change of 2-Phenylethylamine concentration belonging to Clc1ccc(C(OCCN2CCCCC2)c2ccccc2)cc1 (configuration not stated) [Cloperastine hydrochloride] and report it.
Result: 1

Q: Find the recorded fold change of 2-Phenylethylamine concentration belonging to `C=CC[C@]1(O)CC[C@H]2[C@@H]3CCC4=CCCC[C@@H]4[C@H]3CC[C@@]21C` and report it.
Result: 1.1

---

- System: Clostridium sporogenes DSM 1664
- protocol-text: growth (OD595) fold change vs plate DMSO controls (fold change (ratio)); higher = more growth
- recorded-conditions: 20 µM; incubation time: 27 h, anaerobic, 37 °C
Label rule, in plain words: growth of 1 and up is satisfied, under 1 is not satisfied.

Oc1cc(Cl)ccc1Oc1ccc(Cl)cc1Cl = not satisfied
Oc1ccc(Cl)cc1Cc1cc(Cl)ccc1O = not satisfied
CNCC(O)c1ccc(O)cc1 (stereo not given) [Synephrine] = satisfied
O=C(O)C(F)(F)C(F)(F)C(F)(F)C(F)(F)C(F)(F)C(F)(F)C(F)(F)C(F)(F)F = satisfied
CC1=NNC(=O)N(/N=C/c2cccnc2)C1 = satisfied
O=C(O)C(F)(F)C(F)(F)C(F)(F)C(F)(F)C(F)(F)C(F)(F)C(F)(F)F = not satisfied

Continue with the next compound.
Q: Hello, I need to know if `CCN(CC)N=O` has measured growth not below 1. Thanks!
Result: satisfied

---

- System: Escherichia coli IAI1
- protocol-text: fold change of Cadaverine concentration vs plate DMSO controls (fold change (ratio)); higher = more amine produced, active = hit call of the paper (significant change in both replicates, either direction)
- recorded-conditions: 20 µM; incubation time: 27 h, anaerobic, 37 °C
Structures can show the parent of a compound that is named as a salt.
Reported values of fold change of Cadaverine concentration for individual entries
The answer should be a number; do not append a unit.

Q: Find the recorded fold change of Cadaverine concentration belonging to C=C1C[C@@H]2[C@H](CC[C@]3(C)C(=O)CC[C@@H]23)[C@@]2(C)C=CC(=O)C=C12 [Exemestane] and report it.
Result: 0.996

Q: Find the recorded fold change of Cadaverine concentration belonging to `CCc1cccc(C)c1N(C(=O)CCl)[C@@H](C)COC` and report it.
Result: 0.998

Q: Find the recorded fold change of Cadaverine concentration belonging to CC(Cc1ccc(O)cc1)NCC(O)c1cc(O)cc(O)c1 (centres undefined) [Fenoterol hydrobromide] and report it.
Result: 0.983

Q: Find the recorded fold change of Cadaverine concentration belonging to `CNC(=O)/C=C(\C)OP(=O)(OC)OC` and report it.
Result: 1.05

Q: Find the recorded fold change of Cadaverine concentration belonging to COC[C@@H](NC(C)=O)C(=O)NCc1ccccc1 [Lacosamide] and report it.
Result: 1

Q: Find the recorded fold change of Cadaverine concentration belonging to CC(=O)O[C@H]1C[C@@H]2CC[C@@H]3[C@H](CC[C@@]4(C)[C@H]3C[C@H]([N+]3(C)CCCCC3)[C@@H]4OC(C)=O)[C@@]2(C)C[C@@H]1[N+]1(C)CCCCC1 [Pancuronium bromide] and report it.
Result: 0.957

Q: Find the recorded fold change of Cadaverine concentration belonging to `CCC(=O)Nc1ccc(Cl)c(Cl)c1` and report it.
Result: 0.929

Q: Find the recorded fold change of Cadaverine concentration belonging to CC1(C)[C@H](/C=C(\Cl)C(F)(F)F)[C@@H]1C(=O)OC(C#N)c1cccc(Oc2ccccc2)c1 (some centres undefined) and report it.
Result: 1.02

Q: Find the recorded fold change of Cadaverine concentration belonging to CNC(C)(C)Cc1ccccc1 [Mephentermine hemisulfate] and report it.
Result: 0.943

---

- System: Klebsiella aerogenes DSM 30053
- protocol-text: fold change of Histamine concentration vs plate DMSO controls (fold change (ratio)); higher = more amine produced, active = hit call of the paper (significant change in both replicates, either direction)
- recorded-conditions: 20 µM; incubation time: 27 h, anaerobic, 37 °C
Structures can show the parent of a compound that is named as a salt.
Label rule, in plain words: fold change of Histamine concentration of 1 and up is yes (1), under 1 is no (0).

CC(C)(N)Cc1ccccc1 [Phentermine hydrochloride] = no (0)

Q: Hello, I need to know if O=P1(N(CCCl)CCCl)NCCCO1 (stereo not given) [Cyclophosphamide] has measured fold change of Histamine concentration not below 1. Thanks!
Result: yes (1)

Q: Hello, I need to know if `C[C@]12COC(=O)C[C@@H]1CC[C@@H]1[C@@H]2CC[C@@]2(C)[C@H]1CC[C@]2(C)O` has measured fold change of Histamine concentration not below 1. Thanks!
Result: no (0)

Q: Hello, I need to know if OC(Cc1ccccc1Cl)(Cn1nc[nH]c1=S)C1(Cl)CC1 (stereo not given) has measured fold change of Histamine concentration not below 1. Thanks!
Result: yes (1)
